Consider the following compounds and their measured pIC50 readings.
System: ASPC1
test.name: Antiproliferative activity against human ASPC1 cells harboring KRAS G12D mutant assessed as inhibition of cell proliferation incubated for 7 days by CellTiterGlo-3D proliferation assay
Type: functional, cell-based
condition: ASPC1, 168 h
pIC50: −log10 of the molar value.
value.type: pIC50

compound: COc1cc2nc(C)nc(NC(C)c3cc(N)cc(C(F)(F)F)c3)c2cc1C1CCN(C(C)=O)CC1 (centres undefined)
obs.value: 7.44

compound: COc1cc2nc(C)nc(N[C@H](C)c3cc(N)cc(C(F)(F)F)c3)c2cc1C1CCN(C(=O)CCCCCC(=O)N[C@H](C(=O)N2C[C@@H](O)C[C@H]2C(=O)N[C@@H](C)c2ccc(-c3scnc3C)cc2)C(C)(C)C)CC1
obs.value: 6.52

compound: COc1cc2nc(C)nc(N[C@H](C)c3cc(N)cc(C(F)(F)F)c3)c2cc1O[C@H]1CCOC1
obs.value: 7.19

compound: COc1cc2nc(C)nc(N[C@H](C)c3cc(N)cc(C(F)(F)F)c3)c2cc1C1CCN(C(=O)CCCCCC(=O)N[C@H](C(=O)N2C[C@H](O)C[C@H]2C(=O)N[C@@H](C)c2ccc(-c3scnc3C)cc2)C(C)(C)C)CC1
obs.value: 8.16
